# Assayed target: hAhR (Homo sapiens)
# Construct: Stably integrated DRE-luciferase cell lines were generated by transducing the both cell lines with Cignal XRE luciferase reporter (Qiagen) lentiviral particles; endogenous in cells; host or cells: HEPG2 (human hepatoma) with stably integrated XRE/DRE-luciferase reporter
# Sequence (P35869 11-848): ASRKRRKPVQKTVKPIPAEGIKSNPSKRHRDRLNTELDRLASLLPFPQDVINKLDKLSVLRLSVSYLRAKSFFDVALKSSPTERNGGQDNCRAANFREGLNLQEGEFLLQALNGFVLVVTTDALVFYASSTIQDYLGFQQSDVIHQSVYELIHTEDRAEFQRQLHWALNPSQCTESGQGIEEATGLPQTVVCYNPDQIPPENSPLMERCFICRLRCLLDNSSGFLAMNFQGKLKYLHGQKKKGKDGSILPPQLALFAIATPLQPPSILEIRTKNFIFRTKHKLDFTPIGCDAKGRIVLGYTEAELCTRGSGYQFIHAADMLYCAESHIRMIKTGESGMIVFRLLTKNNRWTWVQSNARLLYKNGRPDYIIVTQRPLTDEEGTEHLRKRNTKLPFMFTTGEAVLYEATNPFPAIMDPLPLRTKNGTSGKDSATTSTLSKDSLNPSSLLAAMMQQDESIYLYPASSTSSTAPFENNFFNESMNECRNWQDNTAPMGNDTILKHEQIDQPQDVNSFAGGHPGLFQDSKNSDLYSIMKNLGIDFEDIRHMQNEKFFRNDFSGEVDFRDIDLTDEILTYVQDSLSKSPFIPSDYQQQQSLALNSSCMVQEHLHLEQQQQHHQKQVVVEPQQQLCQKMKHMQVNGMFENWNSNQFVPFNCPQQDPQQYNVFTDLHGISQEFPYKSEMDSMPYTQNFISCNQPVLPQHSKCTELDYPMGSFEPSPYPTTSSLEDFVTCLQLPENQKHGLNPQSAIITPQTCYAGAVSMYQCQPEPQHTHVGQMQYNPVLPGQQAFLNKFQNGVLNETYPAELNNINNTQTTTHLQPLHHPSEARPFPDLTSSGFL
# Experiment notes: DRE-luciferase transcriptional assay, antagonist mode, in HEPG2 DRE-Luc cells stimulated with TCDD
# Assay type: cell-based
# Details: HEPG2 DRE-Luc cells, 3 nM TCDD, 24 h incubation; read-out: HEPG2 % Max Inhibition
The following molecules are shown together with reported Emax values.
The reply should contain only the number, in %.

Molecule: Cc1nccn1-c1cn2c(C(C)C)cnc2c(NCc2cccc(C(N)=O)c2)n1 [Example 23]
Assayed target: hAhR (Homo sapiens)
Readout unit: %
Emax: 12
//
Molecule: Cc1cncc(-c2cn3c(C(C)C)nnc3c(NCCc3ccc(O)cc3)n2)c1 [Example 1]
Assayed target: hAhR (Homo sapiens)
Readout unit: %
Emax: 100
//
Molecule: Cc1nccn1-c1cn2c(C(C)C)cnc2c(OCCc2c[nH]c3ccccc23)n1 [Example 32]
Assayed target: hAhR (Homo sapiens)
Readout unit: %
Emax: 100
//
Molecule: CC(C)c1cnc2c(NCc3cccc4[nH]ccc34)nc(-c3cncc(F)c3)cn12 [Example 28]
Assayed target: hAhR (Homo sapiens)
Readout unit: %
Emax: 33
//
Molecule: Cc1cncc(-c2cn3c(C(C)C)cnc3c(NCCc3c[nH]c4ccccc34)n2)c1 [Example 7]
Assayed target: hAhR (Homo sapiens)
Readout unit: %
Emax: 100
//
Molecule: Cc1nccn1-c1cn2c(C(C)C)cnc2c(NCCc2c[nH]c3ncccc23)n1 [Example 16]
Assayed target: hAhR (Homo sapiens)
Readout unit: %
Emax: 83

Query: For the molecule CC(C)c1cnc2c(NCCc3n[nH]c4ccccc34)nc(-c3cncc(F)c3)cn12 [Example 20] , give its measured Emax value.
Result: 100

Query: Kindly indicate its recorded Emax. Item: CC(C)c1cnc2c(NCCc3c[nH]c4ccccc34)nc(-c3cncc(C#N)c3)cn12 [Example 8]
Result: 100

====

# Assayed target: hAhR (Homo sapiens)
# Construct: Stably integrated DRE-luciferase cell lines were generated by transducing the both cell lines with Cignal XRE luciferase reporter (Qiagen) lentiviral particles; endogenous in cells; host or cells: HEPG2 (human hepatoma) with stably integrated XRE/DRE-luciferase reporter
# Experiment notes: DRE-luciferase transcriptional assay, antagonist mode, in HEPG2 DRE-Luc cells stimulated with TCDD
# Format: cell-based
# Details: HEPG2 DRE-Luc cells, 3 nM TCDD, 24 h incubation; read-out: HEPG2 % Max Inhibition
Measurement kind: Emax

Smiles repr: Cc1nccn1-c1cn2c(C(C)C)cnc2c(NCCc2cc[nH]c2)n1
Emax: 77%

Query: Item Cc1nccn1-c1cn2c(C(C)C)cnc2c(NCCc2c[nH]c3cc(F)ccc23)n1 : provide Emax
Result: 100%

Query: Tell us which Emax value is on record for CC(C)c1cnc2c(NCCc3ccc(O)cc3)nc(-c3cncc(C#N)c3)cn12
Result: 100%

Query: # return recorded Emax for entry CC(C)c1cnc2c(NCCc3c[nH]c4cccc(F)c34)nc(-c3cnn(C)c3)cn12
Result: 100%

====

Below, each entry is listed alongside its reported Emax.
# Assayed target: hAhR (Homo sapiens)
# Construct: Stably integrated DRE-luciferase cell lines were generated by transducing the both cell lines with Cignal XRE luciferase reporter (Qiagen) lentiviral particles; endogenous in cells; host or cells: HEPG2 (human hepatoma) with stably integrated XRE/DRE-luciferase reporter
# Experiment notes: DRE-luciferase transcriptional assay, antagonist mode, in HEPG2 DRE-Luc cells stimulated with TCDD
# Format: cell-based
# Details: HEPG2 DRE-Luc cells, 3 nM TCDD, 24 h incubation; read-out: HEPG2 % Max Inhibition
// note: answer is a bare numeric in %

Compound: Cc1nccn1-c1cn2c(C(C)C)cnc2c(NCCc2c[nH]c3ccc(F)cc23)n1 [Example 13]
Readout unit: %
Emax: 99
--
Compound: CC(C)c1nnc2c(NCCc3ccc(O)cc3)nc(-c3cncc(C#N)c3)cn12 [Example 2]
Readout unit: %
Emax: 100
--
Compound: Cc1nccn1-c1cn2c(C(C)C)cnc2c(N[C@@H](C)Cc2c[nH]c3ccccc23)n1 [Example 17b]
Readout unit: %
Emax: 81.3

Now for the compound whose Emax we want.
Query: Find the measured Emax of Cc1nccn1-c1cn2c(C(C)C)cnc2c(N[C@H](C)Cc2c[nH]c3ccccc23)n1 [Example 17a] and report it.
Result: 100

====

# Assayed target: hAhR (Homo sapiens)
# Construct: Stably integrated DRE-luciferase cell lines were generated by transducing the both cell lines with Cignal XRE luciferase reporter (Qiagen) lentiviral particles; endogenous in cells; host or cells: HEPG2 (human hepatoma) with stably integrated XRE/DRE-luciferase reporter
# Experiment notes: DRE-luciferase transcriptional assay, antagonist mode, in HEPG2 DRE-Luc cells stimulated with TCDD
# Type: cell-based
# Details: HepG2, 24 h, read-out: HEPG2 % Max Inhibition
Measurement kind: Emax (%)
All answers are understood in %, so give the number only.

Compound: Cc1cncc(-c2cn3c(C(C)C)ncc3c(NCCc3ccc(O)cc3)n2)c1
Assayed target: hAhR (Homo sapiens)
Readout unit: %
Emax: 47

Compound: CC(C)c1cnc2c(NCCn3ccc4ccccc43)nc(-c3cncc(F)c3)cn12
Assayed target: hAhR (Homo sapiens)
Readout unit: %
Emax: 100

Compound: CC(CO)c1cnc2c(NCCc3c[nH]c4cccc(F)c34)nc(-c3cncc(F)c3)cn12 (stereo not drawn)
Assayed target: hAhR (Homo sapiens)
Readout unit: %
Emax: 100

Query: For the compound CC(C)c1cnc2c(NCCc3c[nH]c4cccc(F)c34)nc(-c3cncc(F)c3)cn12 , give its measured Emax value.
Result: 100

Query: Determine from records and report Emax for CC(C)c1cnc2c(NCCn3cnc4ccccc43)nc(-c3cncc(F)c3)cn12
Result: 94

Query: Output measured Emax for this item: Cc1nccn1-c1cn2c(C(C)C)cnc2c(NCCc2c[nH]c3c(F)cccc23)n1
Result: 100

====

# Assayed target: hAhR (Homo sapiens)
# Construct: Stably integrated DRE-luciferase cell lines were generated by transducing the both cell lines with Cignal XRE luciferase reporter (Qiagen) lentiviral particles; endogenous in cells; host or cells: HEPG2 (human hepatoma) with stably integrated XRE/DRE-luciferase reporter
# Experiment notes: DRE-luciferase transcriptional assay, antagonist mode, in HEPG2 DRE-Luc cells stimulated with TCDD
# Assay type: cell-based
# Details: HEPG2 DRE-Luc cells, 3 nM TCDD, 24 h incubation; relative IC50; read-out: IC50 hAhR (antagonist mode)
Measurement kind: IC50

Completed entries (count: 10):
Molecule: Cc1ncc(-c2cn3c(C(C)C)cnc3c(NCCc3c[nH]c4cccc(F)c34)n2)cc1F
Measurement kind: IC50
Reported value: 200 to 500 nM
//
Molecule: Cc1nccn1-c1cn2c(C(C)C)cnc2c(NCc2ccc(C(N)=O)cc2)n1
Measurement kind: IC50
Reported value: 1000 to 10000 nM
//
Molecule: CC(CO)c1cnc2c(NCCc3c[nH]c4cccc(F)c34)nc(-c3cncc(F)c3)cn12 (centres unmarked)
Measurement kind: IC50
Reported value: < 200 nM
//
Molecule: CC(C)c1cnc2c(NCCn3cnc4ccccc43)nc(-c3cncc(F)c3)cn12
Measurement kind: IC50
Reported value: 1000 to 10000 nM
//
Molecule: Cc1nccn1-c1cn2c(C(C)C)cnc2c(NCCc2c[nH]c3cccc(F)c23)n1
Measurement kind: IC50
Reported value: < 200 nM
//
Molecule: Cc1nccn1-c1cn2c(C(C)C)cnc2c(NCCc2c[nH]c3cc(F)ccc23)n1
Measurement kind: IC50
Reported value: < 200 nM
//
Molecule: CC(C)c1cnc2c(NCc3cccc4[nH]ccc34)nc(-c3cncc(F)c3)cn12
Measurement kind: IC50
Reported value: 500 to 1000 nM
//
Molecule: Cc1cncc(-c2cn3c(C(C)C)nnc3c(NCCc3ccc(O)cc3)n2)c1
Measurement kind: IC50
Reported value: 500 to 1000 nM
//
Molecule: Cc1cncc(-c2cn3c(C(C)C)ncc3c(NCCc3c[nH]c4ccccc34)n2)c1
Measurement kind: IC50
Reported value: 200 to 500 nM
//
Molecule: Cc1nccn1-c1cn2c(C(C)C)cnc2c(NCCc2c[nH]c3cccnc23)n1
Measurement kind: IC50
Reported value: 1000 to 10000 nM

Query: Using the record for Cc1ncc(-c2cn3c(C(C)C)cnc3c(NCCc3c[nH]c4cccc(F)c34)n2)cn1 , state its measured IC50.
Result: 200 to 500 nM

Query: Quote IC50 reported for Cc1cncc(-c2cn3c(C(C)C)ncc3c(NCCc3ccc(O)cc3)n2)c1 please.
Result: 1000 to 10000 nM

Query: State, in one line, measured IC50 of CC(C)c1cnc2c(NCCc3c[nH]c4cccc(F)c34)nc(-c3cncc(F)c3)cn12
Result: < 200 nM

Query: Answer with reported IC50 of Cc1nccn1-c1cn2c(C(C)C)cnc2c(N[C@@H](C)Cc2c[nH]c3ccccc23)n1 [Example 17b]
Result: 1000 to 10000 nM
